target: CB1 (Mus musculus, UniProt P47746); assay: CB1 radioligand displacement assay in mouse brain membranes; assay type: binding; design: radioligand displacement assay in mouse brain membranes; from tissue; host or cells: mouse brain membranes; conditions: Table 2; read-out: Ki CB1
Sequence (P47746 whole entry): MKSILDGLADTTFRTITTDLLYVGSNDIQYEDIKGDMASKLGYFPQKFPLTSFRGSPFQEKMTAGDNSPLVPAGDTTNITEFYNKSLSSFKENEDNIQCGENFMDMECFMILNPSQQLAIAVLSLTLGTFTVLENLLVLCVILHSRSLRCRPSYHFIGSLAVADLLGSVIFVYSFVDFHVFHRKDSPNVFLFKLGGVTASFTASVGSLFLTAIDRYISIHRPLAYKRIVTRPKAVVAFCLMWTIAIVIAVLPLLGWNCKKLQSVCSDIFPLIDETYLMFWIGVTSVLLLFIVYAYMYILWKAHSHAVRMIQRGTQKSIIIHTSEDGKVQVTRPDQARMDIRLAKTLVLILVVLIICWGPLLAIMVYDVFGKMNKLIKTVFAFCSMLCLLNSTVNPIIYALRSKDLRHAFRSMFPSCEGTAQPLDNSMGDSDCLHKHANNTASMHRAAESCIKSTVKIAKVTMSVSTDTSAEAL
measured_property: Ki (µM)
Hi! Could you send only the number? It should be in µM, unit omitted.

Illustrative cases are given below, each with its answer.
C=CCN(CC=C)/C(N)=N/C(=N/S(=O)(=O)c1ccc(Cl)cc1)N1CC(c2ccccc2)C(c2ccc(Cl)cc2)=N1 (centres unmarked) [Compound 35] : 0.263
CC(N)=NC(=NS(=O)(=O)c1ccc(OC(F)(F)F)cc1)N1CC(c2ccccc2)C(c2ccc(Cl)cc2)=N1 (centres unmarked) [Compound 97] : 0.138
CN(Cc1ccccc1)/C(N)=N/C(=N/S(=O)(=O)c1ccc(Cl)cc1)N1CC(c2ccccc2)C(c2ccc(Cl)cc2)=N1 (centres unmarked) [Compound 49] : 0.343
CC(N)=NC(=NS(=O)(=O)c1ccc2ccccc2c1)N1CC(c2ccccc2)C(c2ccc(Cl)cc2)=N1 (centres unmarked) [Compound 33] : 0.008

Query Cc1cc(C)n(C(N)=NC(=NS(=O)(=O)c2ccc(Cl)cc2)N2CC(c3ccccc3)C(c3ccc(Cl)cc3)=N2)n1 (centres unmarked) [Compound 69] yields Ki of 0.01

Query CC(C)(C)C(N)=NC(=NS(=O)(=O)c1ccc(Cl)cc1)N1C[C@H](c2ccccc2)C(c2ccc(Cl)cc2)=N1 [Compound 3E1] yields Ki of 0.036

Query CC(C)N/C(N)=N/C(=N/S(=O)(=O)c1ccc(Cl)cc1)N1CC(c2ccccc2)C(c2ccc(Cl)cc2)=N1 (centres unmarked) [Compound 47] yields Ki of 0.516

Query CON(C)/C(N)=N/C(=N/S(=O)(=O)c1ccc(Cl)cc1)N1CC(c2ccccc2)C(c2ccc(Cl)cc2)=N1 (centres unmarked) [Compound 42] yields Ki of 0.023

Query CN(CCC#N)/C(N)=N/C(=N/S(=O)(=O)c1ccc(Cl)cc1)N1CC(c2ccccc2)C(c2ccc(Cl)cc2)=N1 (centres unmarked) [Compound 61] yields Ki of 0.203

Query CC(=O)N/C(N)=N/C(=N/S(=O)(=O)c1ccc(Cl)cc1)N1CC(c2ccccc2)C(c2ccc(Cl)cc2)=N1 (centres unmarked) [Compound 65] yields Ki of 0.009

Query NC(=NC(=NS(=O)(=O)c1ccc(Cl)cc1)N1CC(c2ccccc2)C(c2ccc(Cl)cc2)=N1)SCCc1ccccc1 (centres unmarked) [Compound 25] yields Ki of 0.287

###

target: UniProt:P47746; assay: CB1 radioligand displacement assay in mouse brain membranes; assay type: binding; parameters: radioligand displacement assay in mouse brain membranes; from tissue; host or cells: mouse brain membranes; conditions: Table 2; read-out: Ki CB1
Lab note: class by Ki, see bin 1: < 0.06 µM; bin 2: ≥ 0.06 µM and < 0.2 µM; bin 3: ≥ 0.2 µM

Some solved entries appear below for comparison.
CC(N)=NC(=NS(=O)(=O)c1ccc(Br)cc1)N1CC(c2ccccc2)C(c2ccc(Cl)cc2)=N1 (centres unmarked) [Compound 28] : bin 1
CC(C)C(N)=NC(=NS(=O)(=O)c1ccc(Cl)cc1)N1CC(c2ccccc2)C(c2ccc(Cl)cc2)=N1 (centres unmarked) [Compound 5] : bin 1
NC(=NC(=NS(=O)(=O)c1ccc(Cl)cc1)N1CC(c2ccccc2)C(c2ccc(Cl)cc2)=N1)c1ccc([N+](=O)[O-])cc1 (centres unmarked) [Compound 9] : bin 2
NC(=NC(=NS(=O)(=O)c1ccc(Cl)cc1)N1CC(c2ccccc2)C(c2ccc(Cl)cc2)=N1)NCC12CC3CC(CC(C3)C1)C2 (centres unmarked) [Compound 62] : bin 3

### Prompt Looking at COCCN(C)/C(N)=N/C(=N/S(=O)(=O)c1ccc(Cl)cc1)N1CC(c2ccccc2)C(c2ccc(Cl)cc2)=N1 (centres unmarked) [Compound 43] , which class would you pick?
### Response bin 3

### Prompt Looking at CC(C)SC(N)=NC(=NS(=O)(=O)c1ccc(Cl)cc1)N1CC(c2ccccc2)C(c2ccc(Cl)cc2)=N1 (centres unmarked) [Compound 23] , which class would you pick?
### Response bin 2

###

Some compounds, each annotated with its measured pKi.
target: CB1 (Mus musculus, UniProt P47746); assay: CB1 radioligand displacement assay in mouse brain membranes; format: binding; set-up: radioligand displacement assay in mouse brain membranes; from tissue; host or cells: mouse brain membranes; settings: Table 2; read-out: Ki CB1
Answer as the number alone; pKi is minus log10 of concentration in mol/L.

Illustrative cases are given below, each with its answer.
CC(=O)N/C(N)=N/C(=N/S(=O)(=O)c1ccc(C(C)(C)C)cc1)N1CC(c2ccccc2)C(c2ccc(Cl)cc2)=N1 (centres unmarked) : 8.89
NC(=NC(=NS(=O)(=O)c1ccc(C(F)(F)F)cc1)N1CC(c2ccccc2)C(c2ccc(Cl)cc2)=N1)c1ccc(F)cc1F (centres unmarked) : 8.18

Query CC(N)=NC(=NS(=O)(=O)c1ccc(C(C)(C)C)cc1)N1CC(c2ccccc2)C(c2ccc(Cl)cc2)=N1 (centres unmarked) yields pKi of 7.32

Query N/C(=N/C(=N\S(=O)(=O)c1ccc(Cl)cc1)N1CC(c2ccccc2)C(c2ccc(Cl)cc2)=N1)c1ccc(F)cc1 (single isomer, unassigned) [Compound 10E1] yields pKi of 8.19

Query N/C(=N\C(=N\S(=O)(=O)c1ccc(Cl)cc1)N1CC(c2ccccc2)C(c2ccc(Cl)cc2)=N1)n1cccn1 (centres unmarked) yields pKi of 7.96

Query CC(C)(C)N/C(N)=N/C(=N/S(=O)(=O)c1ccc(Cl)cc1)N1CC(c2ccccc2)C(c2ccc(Cl)cc2)=N1 (centres unmarked) yields pKi of 7.31

Query NC(=NC(=NS(=O)(=O)c1ccc(Cl)cc1)N1CC(c2ccccc2)C(c2ccc(Cl)cc2)=N1)C12CC3CC(CC(C3)C1)C2 (centres unmarked) yields pKi of 7.82

Query NC(=NC(=NS(=O)(=O)c1ccc(Cl)cc1)N1CC(c2ccccc2)C(c2ccc(Cl)cc2)=N1)c1cccc(Br)c1 (centres unmarked) yields pKi of 7.25

Query CC(N)=NC(=NS(=O)(=O)c1ccc(C#N)cc1)N1CC(c2ccccc2)C(c2ccc(Cl)cc2)=N1 (centres unmarked) yields pKi of 7.80

Query NC(=NC(=NS(=O)(=O)c1ccc(C(F)(F)F)cc1)N1CC(c2ccccc2)C(c2ccc(Cl)cc2)=N1)NC(=O)/C=C/c1ccccc1 (centres unmarked) yields pKi of 8.26

Query Cc1cc(C)n(C(N)=NC(=NS(=O)(=O)c2ccc(C(F)(F)F)cc2)N2CC(c3ccccc3)C(c3ccc(Cl)cc3)=N2)n1 (centres unmarked) yields pKi of 8.82

###

molecular target: CB1 (Mus musculus, UniProt P47746); test: CB1 radioligand displacement assay in mouse brain membranes; type: binding; set-up: radioligand displacement assay in mouse brain membranes; from tissue; host or cells: mouse brain membranes; details: Table 2; read-out: Ki CB1
Flag rule - Ki less than 20 nM flags label 1; the remaining entries get label 0.

Some solved entries appear below for comparison.
NC(=NC(=NS(=O)(=O)c1ccc(C(F)(F)F)cc1)N1CC(c2ccccc2)C(c2ccc(Cl)cc2)=N1)c1ccc(Cl)cc1 (stereo not shown) [Compound 82] : label 1
NC(=NC(=NS(=O)(=O)c1ccc(Cl)cc1)N1CC(c2ccccc2)C(c2ccc(Cl)cc2)=N1)c1ccc(Br)cc1 (stereo not shown) [Compound 20] : label 0

# input for lookup
### Prompt State whether 20 nM exceeds Ki recorded for COc1cccc(C(N)=NC(=NS(=O)(=O)c2ccc(Cl)cc2)N2CC(c3ccccc3)C(c3ccc(Cl)cc3)=N2)c1 (stereo not shown) [Compound 17] .
### Response label 0

###

target: CB1 (Mus musculus, UniProt P47746); assay: CB1 radioligand displacement assay in mouse brain membranes; type: binding; parameters: radioligand displacement assay in mouse brain membranes; from tissue; host or cells: mouse brain membranes; settings: Table 1; read-out: Ki CB1
measured_property: Ki (nM)
Hi! Could you send only the number? It should be in nM, unit omitted.

CC(C)(C)OC(=O)N/C(N)=N/C(=N/S(=O)(=O)c1ccc(Cl)cc1)N1CC(c2ccccc2)C(c2ccc(Cl)cc2)=N1 (stereo not shown) [Compound 41] : 6.5
N/C(=N\C(=N\S(=O)(=O)c1ccc(Cl)cc1)N1CC(c2ccccc2)C(c2ccc(Cl)cc2)=N1)N1CCOCC1 (stereo not shown) [Compound 52] : 193
CC(C)(C)C(N)=NC(=NS(=O)(=O)c1ccc(Cl)cc1)N1CC(c2ccccc2)C(c2ccc(Cl)cc2)=N1 (stereo not shown) [Compound 3] : 7

Okay, now this compound:
Query CN(C)/C(N)=N/C(=N/S(=O)(=O)c1ccc(Cl)cc1)N1CC(c2ccccc2)C(c2ccc(Cl)cc2)=N1 (racemic) [Compound 44] yields Ki of 171

###

target: CB1 (Mus musculus); assay: CB1 radioligand displacement assay in mouse brain membranes; format: binding; parameters: radioligand displacement assay in mouse brain membranes; from tissue; host or cells: mouse brain membranes; conditions: Table 2; read-out: Ki CB1
measured_property: log10 Ki (log10 of the value in nM)
Recorded Ki (log10, nM)

Illustrative cases are given below, each with its answer.
NC(=NC(=NS(=O)(=O)c1ccc(Cl)cc1)N1CC(c2ccccc2)C(c2ccc(Cl)cc2)=N1)SCc1ccccc1 (stereo not shown) [Compound 24] : 2.10
NC(=NC(=NS(=O)(=O)c1ccc(I)cc1)N1CC(c2ccccc2)C(c2ccc(Cl)cc2)=N1)c1ccc(Cl)cc1 (stereo not shown) [Compound 86] : 1.04
COc1ccc(S(=O)(=O)N=C(N=C(C)N)N2CC(c3ccccc3)C(c3ccc(Cl)cc3)=N2)cc1 (stereo not shown) [Compound 32] : 2.26
NC(=NC(=NS(=O)(=O)c1ccc(C(F)(F)F)cc1)N1CC(c2ccccc2)C(c2ccc(Cl)cc2)=N1)n1cccn1 (stereo not shown) [Compound 84] : 1.45
N/C(=N\C(=N\S(=O)(=O)c1ccc(Cl)cc1)N1CC(c2ccccc2)C(c2ccc(Cl)cc2)=N1)NCCc1ccccc1 (stereo not shown) [Compound 51] : 2.97

Okay, now this compound:
Query CC(C)(C)OC(=O)N/C(N)=N/C(=N/S(=O)(=O)c1ccc(Cl)cc1)N1CC(c2ccccc2)C(c2ccc(Cl)cc2)=N1 (stereo not shown) [Compound 41] yields log10 Ki of 0.81

Origin of the recorded values: patent US20190352268A1
